# System: CHO 10001 cells (wild-type)
# Protocol description: MTT cytotoxicity on wild-type CHO cells
# Assay type: cell-based, Chinese hamster
# Reported conditions: Cricetulus griseus, CHO10001, 120 h, read-out: IC50 CHO 10001
Observed property: IC50 (µM)

- CC(C)c1ccc(NC(=O)NCCCl)cc1 [Example 4-iPCEU]: 4.4
- CC(C)(C)c1ccc(NC(=O)NCCCl)cc1 [Example 4-tBCEU]: 11.6
- CCC(C)c1ccc(NC(=O)NCCCl)cc1 (stereo not drawn) [Example 4-sBCEU]: 5

###

# Tested on: MDA-MB-231 cells
# Protocol description: cells
# Format: cell-based, human
# Experimental: Human breast carcinoma cell line, MDA-MB-231, was obtained from the American Type Culture Collection (ATCC HTB-26; Bethesda, Md.). MDA-MB-231 cells were grown in RPMI 1640 medium supplemented with 10% bovine calf serum (Hyclone, Road Logan, Utah). […] Cytotoxicity was assessed using the MTT assay (3-(4,5-dimethylthiazol-2-yl)-2,5-diphenyltetrazolium bromide) as described by Carmichael et al. (12).
Observed property: cytotoxicity in words (active / inactive CEU)

• CC(C)c1ccc(NC(=O)NCCCl)cc1 = active
• CC(C)(C)c1ccc(NC(=O)NCCCl)cc1 = active
• CCc1ccccc1NC(=O)NCCCl [Example 2-ECEU, 2-ethyl[3-(2-chloroethyl)ureido]benzene] = inactive
• CCC(C)c1ccc(NC(=O)NCCCl)cc1 (centres unmarked) = active
• O=C(NCCCl)Nc1ccccc1 = inactive

Origin of the recorded values: patent US20050250853A1
